Target: human ADRA2B receptor (Homo sapiens, UniProt P18089)
Construct: expressed in transfected cells
Sequence (P18089 1-450): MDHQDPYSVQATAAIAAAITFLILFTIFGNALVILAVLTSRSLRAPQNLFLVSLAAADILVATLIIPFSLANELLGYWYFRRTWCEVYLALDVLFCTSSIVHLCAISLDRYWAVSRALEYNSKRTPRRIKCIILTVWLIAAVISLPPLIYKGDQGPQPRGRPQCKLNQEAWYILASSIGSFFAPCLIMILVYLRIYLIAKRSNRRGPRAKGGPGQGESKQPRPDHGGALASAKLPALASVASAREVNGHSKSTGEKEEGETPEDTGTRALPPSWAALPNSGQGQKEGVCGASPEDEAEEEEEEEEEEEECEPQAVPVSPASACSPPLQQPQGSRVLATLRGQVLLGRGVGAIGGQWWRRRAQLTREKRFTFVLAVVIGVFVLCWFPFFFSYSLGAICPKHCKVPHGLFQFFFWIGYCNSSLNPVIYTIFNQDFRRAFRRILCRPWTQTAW
Test: ADRA2B arrestin agonist assay
Assay type: cell-based
Settings: CHO-K1 cells stably expressing human ADRA2B; read-out: Beta-Arrestin - Human Alpha2B EC50
Measurement name: EC50

- Cc1cccc([C@H](Cc2ccnc(C(C)(C)O)n2)c2c[nH]cn2)c1C: > 500 nM
- Cc1cccc([C@@H](Cc2ccnc(CF)n2)c2c[nH]cn2)c1C: < 10 nM
- Cc1cccc(C(Cn2cccn2)c2c[nH]cn2)c1C (stereo not shown): 10 to 50 nM
- COc1cc(CC(c2c[nH]cn2)c2cccc3c2OCC3)ccn1 (stereo not shown): < 10 nM
- Cc1nccc(C[C@H](c2c[nH]cn2)c2cccc(C)c2F)n1: > 500 nM

Identify the reported EC50 for the following entry. COc1nccc(CC(c2c[nH]cn2)c2cccc(F)c2C)n1 (stereo not shown)
10 to 50 nM

Provide only the value of recorded EC50 for Cn1nccc1CC(c1c[nH]cn1)c1cccc2c1cnn2C (stereo not shown)
50 to 500 nM

Please list EC50 recorded for the compound c1cc2c(c(C(Cc3ccc4nccn4c3)c3c[nH]cn3)c1)OCC2 (stereo not shown)
< 10 nM

State its EC50: Cc1cccc([C@@H](Cc2ccnc(C(C)(C)O)n2)c2c[nH]cn2)c1C
< 10 nM

Return reported EC50. Input compound: Cc1cccc(C(Cc2cnc3n[nH]cc3c2)c2c[nH]cn2)c1C (stereo not shown)
< 10 nM

* * *

The compounds listed here are annotated with their EC50.
Target: human ADRA2B receptor (Homo sapiens)
Construct: expressed in transfected cells
Assay: ADRA2B arrestin agonist assay
Assay type: cell-based
Settings: CHO-K1 cells stably expressing human ADRA2B; read-out: Beta-Arrestin - Human Alpha2B EC50

Worked examples, 8 compounds total:
- Cc1cccc(CC(c2c[nH]cn2)c2cccc(C)c2F)n1 (stereo not drawn): 0.01 to 0.05 µM
- COc1nccc(C[C@H](c2c[nH]cn2)c2cccc3ccn(C)c23)n1: > 0.5 µM
- Cc1cccc([C@H](Cc2cocn2)c2c[nH]cn2)c1C: < 0.01 µM
- Cc1nccc(CC(c2c[nH]cn2)c2cccc(Cl)c2C)n1 (stereo not drawn): < 0.01 µM
- Cc1cccc(C(Cc2cnc3cnccn23)c2c[nH]cn2)c1C (stereo not drawn): 0.01 to 0.05 µM
- Cn1ncc2c(C(Cc3cccc(CF)n3)c3c[nH]cn3)cccc21 (stereo not drawn): 0.01 to 0.05 µM
- Cc1cccc(C(Cc2cn(C3CC3)nn2)c2c[nH]cn2)c1C (stereo not drawn): < 0.01 µM
- Cc1cccc(C(Cc2c(C)ccnc2C)c2c[nH]cn2)c1C (stereo not drawn): > 0.5 µM

// moving on: another record for EC50
Quote EC50 reported for Cc1cccc(C(Cc2ccc(F)nc2)c2c[nH]cn2)c1F (stereo not drawn) please.
0.05 to 0.5 µM

Cited source: patent US20260042769A1
